- TARGET_OR_SYSTEM: Nuclear receptor subfamily 1 group I member 3 (Homo sapiens)
- ASSAY_NAME: qHTS for Constitutive Androstane Receptor (CAR) Antagonist screened against the NCATS CANVASS Library (AID 1347372)
- CONDITION: HepG2-hCAR-CYP2B6 luciferase, CITCO-stimulated antagonist mode; series mostly up to 46.1 µM
- Description: Natural products and their derivatives continue to be wellsprings of nascent therapeutic potential. […] To address this issue, the Canvass library of natural products was assembled (https://tripod.nih.gov/canvass), in collaboration with academic and industry researchers, for quantitative high-throughput screening (qHTS) across a diverse set of cell-based and biochemical assays. […]
Inconclusive results are not listed. The source made the active and inactive calls. Calls come from the whole dose curve; as a rule, active = well fitted inhibition curve with a large enough effect; inconclusive = small, poorly fitted or top-dose-only effect; inactive = no such curve, though single readings can be large or run the other way. Numbered stars: 1 amine (or outer) side, 2 acyl side, 3 side chain; on linkers, the order of the positions; unused ones are H or OH. Square brackets hold non-standard residues; d marks the D form. Peptide text beside a SMILES is read from it. X1 = CCCCCCCCCC(=O)[C@H](C(=O)[*:2])[C@@H]1CNC(=O)[C@@H](N[*:1])CS1
Labels: y for active, n for inactive

compound="CCCCCCCCCCCCCCCC(=O)OC/C=C(\\C)CCCC(C)CC(C)C(C)C (stereo unspecified)" discrete_label=n
compound=C[C@@H]1C[C@H]2C[C@]3(CCCCN3C)[C@@H]3C[C@H]2[C@H](C1)N(C)C3 discrete_label=n
compound=C[C@@H]1C(=O)[C@]23CC[C@H]1C[C@]21O[C@H]2C(C)(C)C=CC(=O)[C@@]23COC1=O discrete_label=n
compound="C=C1C[C@@]23C=CC(=O)[C@@](C)(CCC(=O)Nc4c(O)ccc(C(=O)O)c4O)C2C[C@@H]1CC3O (stereo partly specified)" discrete_label=n
compound=CC(C)=CCC/C(C)=C/Cc1c(O)c(CC=C(C)C)c(O)c2c(=O)c3cc(O)ccc3oc12 discrete_label=n
compound="CCCCCCCCCC(=O)[C@@H]1C(=O)N[C@@H](CC(C)C)C(=O)N[C@H](C)C(=O)N2CCC[C@H]2C(=O)N[C@@H](C(C)C)C(=O)N[C@H]2CS[C@H]1CNC2=O (cyclo(L[dA]PV[X1]))" discrete_label=n
compound="COC1C(O)C(OC(N)=O)C(Oc2ccc3c(O)c(NC(=O)c4ccc(O)c(CC=C(C)C)c4)c(=O)oc3c2C)OC1(C)C (stereo unspecified)" discrete_label=n
compound=CCC1=C2CCCN3C(=O)O[C@H]([C@H]1OC(C)=O)[C@H]23 discrete_label=n
compound=O=Cc1ccc2n1C[C@@]1(C[C@H](O)[C@@H](CO)O1)OC2 discrete_label=n
compound="C[C@@H](CCC[C@]1(C)C(=O)C=C[C@]23C[C@H]4C[C@H](O[C@@]4(C)C2)C31)C(=O)N[C@@H](CO)C(=O)O (stereo partly specified)" discrete_label=n
compound=CN1C(=O)[C@]23SS[C@@]1(C)C(=O)N2[C@H]1Nc2ccccc2[C@]1(c1c[nH]c2ccccc12)[C@@H]3O discrete_label=y
compound="C=C1[C@H]2CC[C@@]3(C=CC(=O)[C@@](C)(CCC(=O)Nc4c(O)ccc(C(=O)O)c4O)C3C2)[C@H]1O (stereo partly specified)" discrete_label=n
compound=O=C1C[C@@H](c2ccc(O)c(-c3c(O)cc(O)c4c3O[C@H](c3ccc(O)cc3)CC4=O)c2)Oc2cc(O)cc(O)c21 discrete_label=n
compound=C=C[C@@]1(C)CC[C@@H]([C@H](C)C(=O)/C=C/C(C)C)O1 discrete_label=n
compound=CC1(C)[C@H](Br)CC[C@]23C[C@]4(C)C(=O)CC12C[C@H]34 discrete_label=n
compound=CC(=O)[C@@H]1[C@@H](O)C[C@H]2[C@]3(C)CC[C@H]4C(C)(C)CCC[C@]4(CO)[C@H]3C[C@H]3OC(=O)[C@@H]1[C@@]32C discrete_label=n
